- Procedure summary: RP, Waters ACQUITY UPLC BEH C18, 100 × 2.1 mm, 1.7 µm, 30 °C, 0.35 mL/min, estimated dead time 0.63 min; A: water + 0.01% formic acid + 5 mM ammonium formate, pH 3.71; B: acetonitrile + 0.01% formic acid, pH 3.71; gradient (min/%B) 0/10 3/10 22/100 30/100 30.1/10 40/10
- Condition info: stereoisomer not certain
Catalogue of LC retention time values
Entry rule: numbers only, all in min.

# Molecule, LC retention time (min)
data = [
    ("CCC1OC(=O)CC(O)C(C)C(OC2OC(C)C(OC3CC(C)(O)C(O)C(C)O3)C(N(C)C)C2O)C(CC=O)CC(C)C(=O)C=CC(C)=CC1COC1OC(C)C(O)C(OC)C1OC (stereo not drawn) [Tylosin]", 10.1),
    ("CCN(CC)C(=O)Nc1ccc(OCC(O)CNC(C)(C)C)c(C(C)=O)c1 (stereo not drawn) [Celiprolol]", 7.46),
    ("CC12CCC(O)CC1CCC1C2C(=O)CC2(C)C1CCC2(O)C(=O)CO (stereo not drawn)", 9.93),
    ("CC(C)(C)NCC(O)c1ccc(O)c(CO)c1 (stereo not drawn) [Albuterol/Salbutamol]", 1.28),
    ("Cn1c(=O)c2c(ncn2C)n(C)c1=O [Caffeine]", 2.43),
    ("COCC(NC(C)=O)C(=O)NCc1ccccc1 (stereo not drawn) [Lacosamide]", 5.76),
    ("CC(=O)Nc1ccc(S(=O)(=O)Nc2nc(C)cc(C)n2)cc1 [Sulfamethazine-N4-Acetyl]", 5.03),
    ("COc1cccc(C2(O)CCCCC2CN(C)C)c1 (stereo not drawn) [Tramadol]", 6.56),
    ("N#CC1CCCN1C(=O)CNC12CC3CC(CC(O)(C3)C1)C2 (stereo not drawn) [Vildagliptin]", 1.89),
    ("CN1CCCC1c1cccnc1 (stereo not drawn) [Nicotine]", 1.03),
]

Please indicate LC retention time recorded for c1cc2c(cc1CN1CCNCC1)OCO2 [Piperazine-1-Piperonyl]
2.63

Name the recorded LC retention time of the item COc1ccc(C(=O)c2ccccc2)c(O)c1 [Benzophenon 3 (=2-Hydroxy-4-methoxybenzophenon)] in your answer.
14.5

Given CN=C(NC#N)NCCSCc1nc[nH]c1C [Cimetidine] , respond with its LC retention time.
1.54

Indicate the recorded LC retention time value for this molecule: O=c1[nH]c2ccccc2s1 [Benzothiazole-2-OH]
7.78

Recall and state the measured LC retention time for CC12CC3CC(C)(C1)CC(N)(C3)C2 [Memantine] .
8.04

Output LC retention time of C=CC(N)CCC(=O)O (stereo not drawn) [Vigabatrin]
0.81

For the molecule Cc1cccc(C)c1OCC(=O)NC(Cc1ccccc1)C(O)CC(Cc1ccccc1)NC(=O)C(C(C)C)N1CCCNC1=O (stereo not drawn) [Lopinavir] , give its reported LC retention time.
14.4

Could you please provide reported LC retention time for CCC(C)C1OC2(C=CC1C)CC1CC(CC=C(C)C(OC3CC(OC)C(OC4CC(OC)C(NC)C(C)O4)C(C)O3)C(C)C=CC=C3COC4C(O)C(C)=CC(C(=O)O1)C34O)O2 (stereo not drawn) [Emamectin] ? Thanks!
16.3
